These data points were gathered from patent US12303509B2.

Target: P-gp (MDR1) (Homo sapiens (Human), UniProt P08183)
Sequence (P08183 whole entry, species assumed): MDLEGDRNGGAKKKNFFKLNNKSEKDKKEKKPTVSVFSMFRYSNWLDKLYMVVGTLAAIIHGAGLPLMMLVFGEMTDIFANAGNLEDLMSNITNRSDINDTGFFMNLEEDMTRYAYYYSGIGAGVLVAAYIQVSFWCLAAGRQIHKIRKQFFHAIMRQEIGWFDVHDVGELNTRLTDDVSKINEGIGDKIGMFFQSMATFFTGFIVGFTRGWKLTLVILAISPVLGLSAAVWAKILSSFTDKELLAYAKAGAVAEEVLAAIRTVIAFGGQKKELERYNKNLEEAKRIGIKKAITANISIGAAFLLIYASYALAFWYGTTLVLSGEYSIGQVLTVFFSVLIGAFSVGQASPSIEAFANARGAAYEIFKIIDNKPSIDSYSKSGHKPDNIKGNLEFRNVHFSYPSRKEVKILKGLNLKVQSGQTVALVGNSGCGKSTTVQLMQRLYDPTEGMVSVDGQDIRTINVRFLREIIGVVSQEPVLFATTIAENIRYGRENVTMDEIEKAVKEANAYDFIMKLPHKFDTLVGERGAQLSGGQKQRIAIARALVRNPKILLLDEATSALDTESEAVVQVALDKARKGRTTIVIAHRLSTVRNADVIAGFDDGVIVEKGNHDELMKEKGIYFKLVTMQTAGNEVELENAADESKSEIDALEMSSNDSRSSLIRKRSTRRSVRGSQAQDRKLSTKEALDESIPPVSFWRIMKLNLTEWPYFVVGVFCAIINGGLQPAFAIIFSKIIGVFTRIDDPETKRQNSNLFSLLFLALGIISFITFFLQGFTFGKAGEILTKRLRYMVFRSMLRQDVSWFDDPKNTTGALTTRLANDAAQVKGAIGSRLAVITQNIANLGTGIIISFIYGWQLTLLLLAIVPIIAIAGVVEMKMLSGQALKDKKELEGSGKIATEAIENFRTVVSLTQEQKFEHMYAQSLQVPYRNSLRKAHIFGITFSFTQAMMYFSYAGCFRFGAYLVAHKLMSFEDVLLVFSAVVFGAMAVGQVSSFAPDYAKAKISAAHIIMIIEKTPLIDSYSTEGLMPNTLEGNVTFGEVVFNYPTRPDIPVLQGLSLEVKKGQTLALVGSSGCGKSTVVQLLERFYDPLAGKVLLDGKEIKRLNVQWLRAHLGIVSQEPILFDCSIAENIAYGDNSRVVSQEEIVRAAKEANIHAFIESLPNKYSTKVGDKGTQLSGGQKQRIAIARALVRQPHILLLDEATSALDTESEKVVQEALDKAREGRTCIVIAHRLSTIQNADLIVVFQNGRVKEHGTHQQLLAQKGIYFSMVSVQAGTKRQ
Assay: MDR1 LLC-PK1 permeability assay: efflux ratio
Assay type: in vitro ADME
Conditions: pig
Structures can show the parent of a compound that is named as a salt.
Give efflux ratio at 2 h, 1 µM for every item shown.

Some molecules with recorded efflux ratio at 2 h, 1 µM:
Cc1c(Nc2c(F)ccc(NS(=O)(=O)N3CC(COC(F)F)C3)c2Cl)ccc2ncn(C)c(=O)c12 [Example 137, trifluoroacetate]    2
COCC1CN(S(=O)(=O)Nc2ccc(F)c(Oc3ccc4ncn(C)c(=O)c4c3Cl)c2Cl)C1    3.5
COCC1(F)CN(S(=O)(=O)Nc2ccc(F)c(Nc3ccc4ncn(C)c(=O)c4c3C)c2Cl)C1 [Example 145, trifluoroacetate]    2.6
Cn1cnc2ccc(Nc3cc(Cl)cc(NS(=O)(=O)N4CC[C@@H](F)C4)c3F)c(Cl)c2c1=O [Example 56, trifluoroacetate]    2.3
Cn1cnc2ccc(Nc3c(F)ccc(NS(=O)(=O)N4CC[C@H](F)C4)c3Cl)c(Cl)c2c1=O    2

// each molecule listed below needs its efflux ratio at 2 h, 1 µM
1. COCC1CN(S(=O)(=O)Nc2ccc(F)c(Oc3ccc4ncn(C)c(=O)c4c3C)c2Cl)C1
2. Cn1cnc2ccc(Nc3c(F)c(F)cc(NS(=O)(=O)N4CCCC4)c3Cl)c(F)c2c1=O [Example 40, trifluoroacetate]

1: 1.6; 2: 2
